Exercise: state measured pIC50 for each of the compounds provided.
# Test system: Hsp90 from SKBr3 cellular extracts
# ASSAY PROTOCOL: Fluorescence polarization
# Format: binding
# CONDITION DESCRIPTION: read-out: IC50, binding affinity for Hsp90; Hsp90 from SKBr3 cellular extracts; displacement of GM-cy3B (6 nM), 4°C, 24 h
One number for each entry, as −log10 of the molar value.

Example entries and their recorded answers appear below.
### Prompt Find pIC50 (Hsp90 from SKBr3 cellular extracts) for the entry "CC1(C)CC(=O)c2c(C(F)(F)F)nn(-c3ccc(C(N)=O)c(N[C@H]4CC[C@H](N)CC4)c3)c2C1"
### Response 6.68

### Prompt Hello, I am looking for reported pIC50 with Hsp90 from SKBr3 cellular extracts for "Nc1ncnc2c1nc(Sc1cc3c(cc1I)OCO3)n2CCCNCCOCCOCCOCCNC(=O)CCCC[C@@H]1SC[C@@H]2NC(=O)N[C@@H]21" . Could you help?
### Response 7.17

### Prompt Tell me reported pIC50 for "CC1(C)CC(=O)c2c(C(F)(F)F)nn(-c3ccc(C(N)=O)c(N[C@H]4CC[C@H](NC(=O)CCCCCN)CC4)c3)c2C1" , tested with Hsp90 from SKBr3 cellular extracts.
### Response 7.61

### Prompt Requested read-out pIC50, target or system Hsp90 from SKBr3 cellular extracts, entry CC(C)NCCCn1c(Sc2cc3c(cc2I)OCO3)nc2c(N)ncnc21 [PU-H71, reference compound]
### Response 7.65

### Prompt Provide the documented pIC50 with Hsp90 from SKBr3 cellular extracts as the system for CCNC(=O)c1noc(-c2cc(C(C)C)c(O)cc2O)c1-c1ccc(CN2CCOCC2)cc1 [NVP-AUY922, reference compound]
### Response 8.39

Now consider the entry below.
### Prompt Write down the reported pIC50 of "CCNC(=O)c1noc(-c2cc(C(C)C)c(O)cc2O)c1-c1ccc(CNCCCCCCN)cc1" , test system: Hsp90 from SKBr3 cellular extracts.
### Response 8.15
